B1: ZNF649 (parent)
chain: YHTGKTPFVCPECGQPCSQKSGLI

Variants of: B1
Test: protein stability index of a GFP-peptide fusion (GPS, HEK-293T) (PSI 1-6); higher = more stable;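 further: lentivirally expressed fusions sorted by FACS into six bins by GFP to DsRed ratio, PSI derived from sequencing read proportions per bin multiplied by bin number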
Conditions: c terminus: a fixed tail appended
Output Yes for protein stability index not less than 2; output No otherwise.

For orientation, consider the following solved cases.
• S21P = No
• C13S = No
• K20H = Yes
• G22K = No
• L23E = No

Task: Given the entry V9H , answer whether its protein stability index meets or surpasses 2.
Output: Yes

Task: Check if protein stability index >= 2 (inclusive). Item: G4R
Output: No

Task: hey, is protein stability index for this one >= 2? C13H
Output: Yes

Task: // inclusive: protein stability index at least 2? input: P11V
Output: Yes

Task: Identify whether the reported protein stability index of the following variant is 2 or greater: Q19E
Output: No

Task: Can Q15V be said to have protein stability index at or above 2?
Output: No

Task: Would you say P16Q shows protein stability index at minimum 2?
Output: Yes

Task: Textbook exercise: given the entry Y1D , state whether its protein stability index is greater than or equal to 2.
Output: Yes

Task: Is protein stability index at least 2? Consider P11T
Output: Yes

Task: Textbook exercise: given the entry P11F , state whether its protein stability index is greater than or equal to 2.
Output: Yes

Task: Say whether F8H shows protein stability index of 2 or more.
Output: Yes

Task: Could you verify whether the entry L23R shows protein stability index of no less than 2?
Output: No

Task: Please indicate if the recorded protein stability index for S21V meets or exceeds 2.
Output: No

Task: Determine whether this variant has protein stability index no lower than 2: S18W
Output: No

Task: For this variant, is measured protein stability index 2 or higher? F8G
Output: No

Task: API: above_or_equal(metric=protein stability index, cutoff=2) for item I24F
Output: Yes

Task: Quick check, protein stability index >= 2? C10Q
Output: No

Task: Please tell me: is the variant I24Q at or over 2 in terms of protein stability index?
Output: Yes

Task: Has L23Y a recorded protein stability index greater than or equal to 2?
Output: No

Task: Record S21D ; criterion: protein stability index no lower than 2. Met?
Output: No

Task: # check: protein stability index of T3P is greater than or equal to 2
Output: No

Task: Check the entry T6Q : does protein stability index equal or exceed 2?
Output: Yes

Task: Is it the case that E12K has protein stability index reaching or exceeding 2?
Output: Yes

Task: Check if protein stability index >= 2 (inclusive). Item: G22Y
Output: Yes

These entries and their values trace back to the supplement of paper PMC10567573.
